- Tested on: UACC-62 melanoma
- method_summary: NCI-60 one-dose screen, 48 h
- measurement_parameters: 10 µM unless noted
- Method: Growth inhibition of the UACC-62 human tumor cell line is measured as a screen for anti-cancer activity. Cells are grown in 96 well plates and exposed to the test compound for 48 hours. Compounds are tested at a single concentration, which is 10^-5 M for most compounds. The reported endpoint is percent growth (GI% or GIPRCNT), where numbers from 0 - 100% represent growth inhibition, and numbers from -100% - 0 represent cell death. For example, a value of 40 represents 60% growth inhibition. […]
This is part of a sample that, as a whole, favours compounds with a hit. Of some 83,000 tested, about 20% had one in any assay. Calls of active or inactive are those of the source. How the source made its calls: active means growth percent below 10; inactive means the rest.
I would appreciate it if you answered using one of these outcomes: active, inactive

Known results for compounds:
CC(=O)[O][Hg][c]1ccccc1: active
CC1([N+](=O)[O-])COP(=O)(Nc2ccc(F)cc2)OC1 (stereo not drawn): inactive
C/C1=C/C(=O)O[C@@H]2C[C@@H](CC[C@H](C)/C=C\C=C\CC1)O[C@@](OCCc1ccccc1)([C@@H]1CSC(=O)N1)C2: inactive
CSc1ccccc1NP1(=O)OCC(C)([N+](=O)[O-])CO1 (stereo not drawn): inactive
O=CN1N=C(c2ccc3c(c2)OCO3)CC1c1sc(N(CCCl)CCCl)nc1Cl (stereo not drawn): inactive

Now let's try a different one.
INPUT: What call does the record list for O=C(O)c1cccc(CCl)c1 ?
OUTPUT: inactive

----------
- System: HL-60(TB) leukemia
- method_summary: NCI-60 one-dose screen, 48 h
- measurement_parameters: 10 µM unless noted
The panel holds about 83,000 compounds, 20% with a hit somewhere; the sample as a whole holds those more often. Activity calls are given as the source filed them. How the source made its calls: active means growth percent below 10; inactive means the rest.
Hello, when you answer, please use one of the following outcomes: active, inactive

Cc1ccc(SC2c3ccc(C)cc3Oc3nc(N)c(C#N)c(N)c32)cc1 (stereo not drawn): active

INPUT: Called result for CCOc1nc(-c2ccccc2)cc2c(O)c(C(=O)N/N=C/c3ccc(N(C)C)cc3)[nH]c(=O)c12
OUTPUT: inactive

INPUT: Which outcome was assigned to CC(=O)Nc1ccc2c(c1)Cc1c(F)c(F)c(F)c(F)c1-2 in this test?
OUTPUT: inactive

INPUT: Given O=C(/C=C/c1ccccc1)N[C@@H](CO)Cc1cnc[nH]1 , state the outcome it received in this test.
OUTPUT: inactive

INPUT: Hello, I am checking results. What call was entered for O=C1Nc2ccccc2/C1=C/C(=O)c1ccc(N2CCOCC2)cc1 ?
OUTPUT: inactive

INPUT: Short answer needed: outcome of this test for S=c1nn[nH]c2ccccc12 ?
OUTPUT: inactive

INPUT: Called result for COc1ccccc1N1CCN(CCCOc2ccc(C(=O)/C=C3/C(=O)Nc4ccccc43)cc2)CC1
OUTPUT: inactive

INPUT: Answer briefly: the call reported for CCCNc1nc2ccccc2c2c(=O)c3cccc(Cl)c3sc12 in this assay.
OUTPUT: inactive

INPUT: Please state the recorded outcome for this molecule: Cc1cccc2c(Nc3ccc(NS(C)(=O)=O)cc3)c3ccc([N+](=O)[O-])cc3nc12
OUTPUT: active

INPUT: Recorded test call requested for CCN(CC)CCCC(C)Nc1cnc(C(=O)Nc2cc(C)cc3cccnc23)cn1 (stereo not drawn)
OUTPUT: inactive

INPUT: How did this test come out for c1ccc(CN2COc3c(ccc4c3OCN(Cc3ccccc3)C4)C2)cc1 ?
OUTPUT: active

INPUT: For NC(=O)Nc1ccc2ncnc(Nc3ccc(Cl)cc3)c2c1 , which call appears in the assay record?
OUTPUT: inactive

INPUT: Hi, sorry to bother you, what did the test record for CCOC1(OCC)OC(c2ccccc2)=C(C#N)C(/C=C\c2ccccc2)C1(OCC)OCC (stereo not drawn) ?
OUTPUT: inactive

INPUT: What call does the record list for CC1CCCN(CCCCCOc2ccc3oc4ccccc4c(=O)c3c2)C1 (stereo not drawn) ?
OUTPUT: inactive

INPUT: Per the assay record, what outcome was assigned to COc1ccc(CN2c3ccccc3Sc3ccccc32)c(C(F)(F)F)c1 ?
OUTPUT: inactive

INPUT: Dear all, I need the recorded test outcome for O=C(CCCCCCSc1nc(-c2ccccc2)cc(-c2ccc(Cl)cc2)n1)NO , thank you.
OUTPUT: active

INPUT: Dear all, I need the recorded test outcome for COc1cccc2c1C(=O)c1c(O)c3c(c(O)c1C2=O)C[C@](O)(C(=O)CO)C[C@H]3O[C@@H]1C[C@@H](NC(=O)CCCCCN(C)C2(c3ccc(F)cc3)CC3CCC2C3)[C@H](O)[C@@H](C)O1 (stereo partly drawn) , thank you.
OUTPUT: inactive

INPUT: Fill in: this test's call for COc1ccc(S(=O)(=O)N2CC3(COC3)C2)cc1NC(=O)c1[nH]c(C)c2c1CCCCC2=O is ___
OUTPUT: active

INPUT: # lookup: test call for O=S(=O)(NCCCNc1nccc(-c2c(-c3cccc(F)c3)nc3sccn23)n1)c1cccc(F)c1
OUTPUT: inactive
